Data origin, for the record: PubChem BioAssay (NCI)

Test system: PC-3 prostate
Assay: NCI tumour cell line growth inhibition, 48 h; in the data active means GI50 below about 0.43 µM; inactive means the rest
Hi there, use one of these labels in your reply, thanks! label 1 for active, label 0 for inactive

Recorded call for CC[CH2][Sn]([CH2]CC)([O]C(=O)Cc1ccc(F)cc1)[O][Sn]([CH2]CC)([CH2]CC)[O]C(=O)Cc1ccc(F)cc1 ?
label 0

Here is the next compound: CCOCCOC[C@H]1CCCN(c2ccnc3sc(C(N)=O)c(N)c23)C1
label 0

Further, for CC#CC(=O)N1CC[C@@H](n2c(=O)n(-c3ccc(Oc4ccccc4)cc3)c3c(N)ncnc32)C1 ?
label 0

Same question for COc1ccc2nc3ccccc3c(NCc3ccc(C)cc3)c2c1 please.
label 0

What would you report for Oc1c(I)cc(I)cc1CN(Cc1ccccn1)Cc1ccccn1 ?
label 0

Would you mind doing CCN1CCN(c2ccc(Nc3ncc4ccc5ncn(C(C)C)c5c4n3)nc2)CC1 as well?
label 1

Can you handle Fc1cccc(-c2[nH]nc3nc(Nc4cccnc4)sc23)c1 next?
label 0

Next compound up: CC(CN)[C@@H]1CC[C@]2(CO)CC[C@]3(C)[C@H](CC[C@@H]4[C@@]5(C)CCC(N)C(C)(C)[C@@H]5CC[C@]43C)[C@@H]12 (some centres undefined)
label 0

Lookup O=S(=O)(Nc1ccccn1)c1ccc(N=Nc2ccc(O)c3ncccc23)cc1
label 0

====

Test system: SK-MEL-28 melanoma
Assay: NCI tumour cell line growth inhibition, 48 h; in the data active means GI50 below about 0.43 µM; inactive means the rest
Use one of these outcomes when replying: active, inactive

Which outcome was assigned to C=C(C)[C@@H]1CC[C@]2(C(N)=O)CC[C@]3(C)[C@H](CC[C@@H]4[C@@]5(C)C/C(=C/c6cccnc6)[C@H](O)C(C)(C)[C@@H]5CC[C@]43C)[C@@H]12 in this test?
inactive

What about COc1cc(/C=C2\C[C@H]3[C@@H]4CC=C5C[C@@H](OC(C)=O)CC[C@]5(C)[C@H]4CC[C@]3(C)[C@H]2OC(C)=O)ccc1OCCN1CCCCC1 ?
inactive

What about this compound? Cc1nn(C)c2cc(N(C)c3ccnc(Nc4cccc(S(N)(=O)=O)c4)n3)ccc12
inactive

Would you mind doing c1ccc2c3c(ccc2c1)-c1c(ccc2c(NCCCCN4CCCCC4)cccc12)C3 as well?
inactive

Quick one: C[C@@H]1OCC2(CCN(c3cnc(Sc4ccnc(N)c4Cl)c(N)n3)CC2)[C@@H]1N
inactive

One more compound: Cc1ccc(C2=NN(c3ccc(S(N)(=O)=O)cc3)C(c3cn(-c4ccccc4)nc3-c3ccccc3)C2)cc1 (centres undefined)
inactive

Now the compound Cc1ccc(S(=O)(=O)OC[C@@]2(C)CC[C@]3(C)CC[C@]4(C)C(=CC[C@@H]5[C@@]6(C)CCCNC(C)(C)[C@@H]6CC[C@]54C)[C@@H]3C2)cc1
inactive

Likewise for CCCCCCNCCCNc1c2ccccc2nc2cccc([N+](=O)[O-])c12 ?
active

// same read-out, input: COc1ccc2nc3ccccc3c(NCc3ccc(C)cc3)c2c1
inactive

Check COc1ccc2nc(-c3cc4c([nH]c5ccccc54)c(-c4ccc(F)c(F)c4)n3)[nH]c2c1 too.
inactive

And CCN(CC)CC[n+]1cc2cc(OC)c(OC)cc2c2ccc3cc4c(cc3c21)OCO4 ?
inactive

Here is the next compound: Nc1nc(-c2ccccc2)cc(-c2ccc(Cl)cc2)c1-c1nc2ccccc2o1
inactive

Thanks! And Nc1ccccc1C#Cc1ccccc1C#Cc1cnccn1 ?
inactive

And for Nc1ccc(-c2ccc(-c3nc4cc(Cl)c(Cl)cc4[nH]3)cc2)cc1 ?
inactive

====

Tested on: CAKI-1 renal
Experiment: NCI tumour cell line growth inhibition, 48 h
experimental readout: TGI

Recorded TGI of COC(=O)C(=O)C(C(=O)OC)C(=O)C(=O)Nc1cc(Cl)c(Cl)cc1Cl (stereo not given) , please.
> 100 µM

And the next one, c1cc(NC2=NCCO2)c2c(c1)OCO2 ?
> 100 µM

Moving on to Cc1cc2nc(C(Cl)Cl)nc(-c3ccccc3)n2n1
15.4 µM

// same read-out, input: Cc1ccccc1NC(=O)c1ccc([N+](=O)[O-])cc1
> 100 µM

Query COc1ccc(C2CC(=O)c3c(O)c(OC)c(OC)c(OC)c3O2)cc1O (stereo not given) next
> 100 µM

Further, for CCOC(=O)c1cc(C#N)[nH]c1-c1ccsc1 ?
> 100 µM

And COc1cc2c(cc1OC)C(=O)/C(=C/c1ccc([N+](=O)[O-])cc1)CC2 ?
> 10 µM

Ok, now CN1CCN(CC(=O)N2c3cccc4cccc(c34)N(C(=O)CN3CCN(C)CC3)C2c2cn(-c3ccccc3)nc2-c2cccc([N+](=O)[O-])c2)CC1
4.1 µM

Next record, please: O=C1C[C@H](CCC(=O)OCc2ccccc2)NC(=O)C[C@H](CCC(=O)OCc2ccccc2)NC(=O)C[C@H](CCC(=O)OCc2ccccc2)N1
> 100 µM

Then this compound: CCN(CC)CC[n+]1cc2cc(OC)c(OC)cc2c2ccc3cc4c(cc3c21)OCO4
14.3 µM

Same again, this time with COc1cc2c3c(n(CCCN4CCCC(O)C4)c(=O)c2cc1OC)-c1cc2c(cc1C3=O)OCO2 (stereo not given)
1.36 µM

How about this compound: N#Cc1nn(-c2cc(=O)[nH]c3ccc(Br)cc23)c(N)c1C#N
> 100 µM

And O=C(C=Nc1ccccc1C(=O)[O-])c1cccs1.O=C(C=Nc1ccccc1C(=O)[O-])c1cccs1.[Zn+2] ?
> 100 µM

Next record, please: COc1ccc(C(c2ccc3c(c2)OCO3)N2C(=O)CCC2C(=O)O)cc1 (stereo not given)
> 100 µM

Quick one: O=C(COc1ccc(Cl)cc1Cl)N/N=C/C=C/c1ccc([N+](=O)[O-])o1
> 100 µM

Again, but for COC1=C(OC)[C@]2(OC)c3c(O)c(OC)c4c(c3O[C@@]23O[C@@H](c2ccccc2)CC=C3C1=O)[C@@H](O)C[C@H](c1ccccc1)O4
2.93 µM

Could you do the same for COC(=O)C1=C(C)N(NC(N)=O)C(C)(O)C12CCOC2=O (stereo not given) , please?
> 100 µM

What about this compound? O=C(O)C1=NN(c2ccc(S(=O)(=O)O)cc2)C2(C1)SCC(=O)N2c1nc2ccccc2s1 (stereo not given)
> 100 µM

Can you check Nc1nc(=Nc2ccccc2)ss1 next?
> 100 µM

Request: O=NN(CCCl)C(=O)N[C@H]1CCCC[C@@H]1Cl
> 100 µM

====

Consider the following molecules; for each one, report its TGI.
Test system: NCI/ADR-RES ovarian
Test: NCI tumour cell line growth inhibition, 48 h

GET /values?readout=TGI&item= O=C(/C=C/c1ccc2c(c1)OCO2)CC(=O)/C=C/c1ccc2c(c1)OCO2
> 100 µM

Lookup Cc1ccc(/C=N/NS(=O)(=O)c2ccc(/C=C3\NC(=O)NC3=O)cc2)cc1
> 100 µM

Now this one: CC1c2cc(c3c(c2O)CN([C@@H](C)C2CCCCC2)CO3)C(C)c2cc(c3c(c2O)CN([C@@H](C)C2CCCCC2)CO3)C(C)c2cc(c3c(c2O)CN([C@@H](C)C2CCCCC2)CO3)C(C)c2cc1c1c(c2O)CN([C@@H](C)C2CCCCC2)CO1 (some centres not stated)
2.67 µM

Item: Nc1nc(-c2ccc(Cl)cc2)cc(-c2ccccc2)c1-c1nc2ccccc2o1
> 100 µM

Let us now turn to C=C(C)[C@@H]1CC[C@]2(C(N)=O)CC[C@]3(C)[C@H](CC[C@@H]4[C@@]5(C)C/C(=C/c6cccnc6)[C@H](O)C(C)(C)[C@@H]5CC[C@]43C)[C@@H]12
> 100 µM

Same thing, different molecule: COc1ccc(C)cc1Nc1nnc(-c2ccc(N)cc2)s1
> 100 µM

Also O=c1c(=[n+]2ccc(=C([O-])c3ccccc3)cc2)/c(=N/S(=O)(=O)c2ccccc2)c(=O)c2ccccc12 , if possible.
24.3 µM

====

Test system: SNB-19 CNS
Experiment: NCI tumour cell line growth inhibition, 48 h
experimental readout: TGI

Please report the recorded TGI for C[N+](C)(CCO)CCN1c2ccccc2Sc2ccccc21 .
> 10 µM

Now consider COc1cc2c(cc1OC)-c1cc3ccc(OC)c(OC)c3c[n+]1CC2 .
68 µM

Please do the same for COc1cc(N2CCC(N3CCN(C)CC3)CC2)ccc1Nc1ncc(Cl)c(Nc2ccccc2S(=O)(=O)C(C)C)n1 as well.
12.2 µM

Can you handle c1ccc2c3c(ccc2c1)-c1c(ccc2c(NCCCCN4CCCCC4)cccc12)C3 next?
63.5 µM

Also O=C(Cc1ccccc1)NS(=O)(=O)c1ccccc1 ?
> 100 µM

Try the molecule CCOCCOC[C@H]1CCCN(c2ccnc3sc(C(N)=O)c(N)c23)C1
> 100 µM

And then COc1ccc(C2C(C=O)C(N3CCN(C)CC3)=Nc3nc4ccccc4n32)cc1 (stereo not drawn) , what is it?
41 µM

Check CCOP(=O)(OCC)C(Nc1ccc(C(=O)O)cc1)c1ccc(C(Nc2ccc(C(=O)O)cc2)P(=O)(OCC)OCC)cc1 (stereo not drawn) too.
> 100 µM

And what about the molecule CC(C)c1cccc(C(C)C)c1NC(=O)CCC(=O)NN ?
> 100 µM

Let us now turn to C=CCSSc1ncnc2c1ncn2C1OC(CO)C(O)C1O (stereo not drawn)
> 100 µM

Could you do the same for CC1c2cc(c3c(c2O)CN([C@@H](C)C2CCCCC2)CO3)C(C)c2cc(c3c(c2O)CN([C@@H](C)C2CCCCC2)CO3)C(C)c2cc(c3c(c2O)CN([C@@H](C)C2CCCCC2)CO3)C(C)c2cc1c1c(c2O)CN([C@@H](C)C2CCCCC2)CO1 (stereo partly drawn) , please?
3.44 µM

Cn1c(=O)cc(N2CCCC2)[nH]c1=O ?
> 100 µM

Lookup Cc1ccccc1NC(=O)c1ccc([N+](=O)[O-])cc1
> 100 µM

Again, but for C=C1C(=O)O[C@H]2[C@H]1CC/C(COC(=O)NCc1cc(OC)cc(OC)c1)=C\CC[C@@]1(C)O[C@@H]21
22.2 µM

What about this molecule? O=C(CC(=O)N1N=C(N(c2ccccc2)c2ccccc2)CC1c1ccccc1)Nc1ccccc1 (stereo not drawn)
> 100 µM

Queued: COc1ccc(N=CN(C)C)c(C)c1
> 100 µM

Follow-up entry: C/C(=C\c1ccn(-c2ccc(N)cc2F)n1)[C@@H]1C[C@@H]2O[C@]2(C)CCC[C@H](C)[C@H](O)[C@@H](C)C(=O)C(C)(C)[C@@H](O)CC(=O)O1
> 50 µM

Cc1cc(N(CCOS(C)(=O)=O)CCOS(C)(=O)=O)ccc1C=Nc1ccc(-c2csc(-c3ccc(Br)cc3)n2)cc1 ?
> 88.1 µM

Then N#CC(c1ccccc1)N(CCOCCOCCN(C(=O)c1cccc2ccccc12)C(C#N)c1ccccc1)C(=O)c1cccc2ccccc12 (stereo not drawn) ?
> 100 µM

Check CC(=O)CCC[C@H](C)[C@@H](O)[C@@H]1O[C@H]([C@@]2(C)CCC(=O)O2)C[C@H]1C(=O)O too.
> 100 µM

What do we get for COc1ccc2c(c1)CC[C@@H]1[C@@H]2CC[C@]2(C)C(=O)/C(=C/c3ccc(O)c(OC)c3)C[C@@H]12 ?
> 100 µM

Another molecule to check: Cc1ccc(NC(=O)CC2C(=O)Nc3ccccc3S2=O)c(C)c1 (stereo not drawn)
30.8 µM

How about COC(=O)[C@H](COC(=O)/C=C/c1ccc(OC(C)=O)c(OC(C)=O)c1)NC(=O)/C=C/c1ccc(OC(C)=O)c(OC(C)=O)c1 ?
35.8 µM

Query O=C(O)c1ccc(NNC(=O)c2cccc3c(=O)c4ccccc4[nH]c23)cc1 next
> 100 µM

Also check COC(=O)N/N=C(/Cc1occc(=O)c1O)C(=O)Nc1ccc([N+](=O)[O-])cc1[N+](=O)[O-]
> 100 µM

Item: CCCCCC/C=C1\CCC(CN(C)C)C1=O (stereo not drawn)
30.8 µM

Note, next up: O=S(=O)(CCCCl)SCCCCl
> 100 µM

Next molecule up: CCOC(=O)c1cc2cc(C)cc(C(=O)c3ccc([N+](=O)[O-])cc3)c2[nH]1
> 100 µM

And the next one, COC(=O)C(=O)C(C(=O)OC)C(=O)C(=O)Nc1cc(Cl)c(Cl)cc1Cl (stereo not drawn) ?
> 100 µM

Another: CC1=CC(=O)c2ccc(C)cc2C1=O
30 µM

Would you kindly repeat that for C[CH2][Sn]([CH2]C)([O]C(=O)c1ccc(F)cc1)[O][Sn]([CH2]C)([CH2]C)[O]C(=O)c1ccc(F)cc1 ?
> 100 µM

Now consider O=[N+]([O-])c1cc2c(c([N+](=O)[O-])c1)Nc1ccccc1O2 and answer again.
> 100 µM

Similarly, Cc1cc2nc(C(Cl)Cl)nc(-c3ccccc3)n2n1 ?
28 µM

Same thing, different molecule: Cc1c(-c2nnc(-c3cc(Cl)c(Cl)cc3Cl)o2)nnn1-c1ccnc2c(C(F)(F)F)cccc12
79.9 µM

And the next one, COC1=C(OC)[C@]2(OC)c3c(O)c(OC)c4c(c3O[C@@]23O[C@@H](c2ccccc2)CC=C3C1=O)[C@@H](O)C[C@H](c1ccccc1)O4 ?
9.69 µM

Here is the next molecule: Cc1ccc(S(=O)(=O)Nn2c(O)c(C#N)c(-c3ccc(N(C)C)cc3)c(C#N)c2=O)cc1
> 50 µM

Please answer likewise for CNC(=O)Nc1ccccc1
> 100 µM

Would you mind doing CC(C)N1[C@@H]2CCCC[C@H]2N(C(C)C)P1(=O)C(=O)/C=C/c1ccccc1 as well?
18.3 µM
